Data origin: PubChem BioAssay (NCI)

Test system: XF 498 CNS
Experimental Protocol: NCI tumour cell line growth inhibition, 48 h
Catalogue of compounds with associated TGI
# unit: µM | format: bare number

Compound: CCCCOC(=O)N[C@H]1CCc2cc(OC)c(OC)c(OC)c2-c2ccc(SC)c(=O)cc21
TGI [µM]: 2.55

Compound: CC(=O)O[C@H]1CC[C@@]2(C)C(=CC[C@@H]3C2CC[C@]2(C)Nc4oncc4CC32)C1 (stereo not given in full)
TGI [µM]: 84.4

Okay, now this compound:
Enquiry: Give the measured TGI of "Cc1[nH]n(C(=O)c2ccccc2O)c(=O)c1/C=C1\C(=O)C=Cc2ccccc21" .
Return: 29
